Reported Plant response rating, Pigweed values follow for various molecules
- Tested on: pigweed
- procedure.text: Test C pre-/postemergence herbicide test
- Format: in vivo, Amaranthus retroflexus
- condition: postemergence; 62 g ai/ha; scale 0 to 100
Lab note: record just the number, no unit beside it.

Guide cases for Plant response rating, Pigweed, answers given:
{"smiles.data": "CCn1nc(C(C)(C)C)cc1C(=O)Nc1cccc(OC(F)(F)C(F)F)c1", "Plant response rating, Pigweed": 65}
{"smiles.data": "CCn1nc(C(C)(C)C)cc1C(=O)Nc1cccc(C(=O)NC2CC2)n1", "Plant response rating, Pigweed": 80}
{"smiles.data": "C=CCOC(=O)c1cccc(NC(=O)c2cc(C(C)(C)C)nn2CC)c1", "Plant response rating, Pigweed": 100}

Okay, next one:
-- ask Given the molecule `CCn1nc(C(C)(C)C)cc1C(=O)Nc1ccc(F)c(C(=O)NCCF)c1` , what is its reported Plant response rating, Pigweed?
-- reply 40
